# targetUnderTest: Kappa-type opioid receptor (Homo sapiens, UniProt P41145)
# Sequence (P41145 whole entry): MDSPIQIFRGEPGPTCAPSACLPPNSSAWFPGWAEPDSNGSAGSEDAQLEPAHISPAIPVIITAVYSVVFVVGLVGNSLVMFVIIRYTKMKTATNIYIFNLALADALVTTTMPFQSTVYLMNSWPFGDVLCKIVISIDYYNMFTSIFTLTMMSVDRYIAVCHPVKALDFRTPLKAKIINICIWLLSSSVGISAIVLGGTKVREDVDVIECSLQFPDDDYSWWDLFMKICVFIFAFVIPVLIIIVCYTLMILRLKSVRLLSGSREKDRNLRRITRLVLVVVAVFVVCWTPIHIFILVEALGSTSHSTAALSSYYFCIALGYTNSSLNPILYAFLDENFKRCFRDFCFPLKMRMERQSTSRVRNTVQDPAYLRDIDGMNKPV
# testName: Agonist activity at human KOR expressed in CHO cells assessed as inhibition of forskolin-induced cAMP accumulation after 30 mins by luminescence assay
Rule: EC50 below 30 nM gives Fulfilled. Equal to or above 30 nM gives Not fulfilled.

**Query** Problem: For the compound COC(=O)[C@@H]1C[C@H](OC(C)=O)C(=O)[C@H]2[C@@]1(C)CC[C@H]1C(=O)O[C@H](c3ccoc3-c3cccc(C(F)(F)F)c3)C[C@]21C , is EC50 under 30 nM?
**Result** Fulfilled

**Query** Does CCc1occc1[C@@H]1C[C@]2(C)[C@H]3C(=O)[C@@H](OC(C)=O)C[C@@H](C(=O)OC)[C@]3(C)CC[C@H]2C(=O)O1 have EC50 strictly under 30 nM?
**Result** Fulfilled

**Query** Please determine if COC(=O)[C@@H]1C[C@H](OC(C)=O)C(=O)[C@H]2[C@@]1(C)CC[C@H]1C(=O)O[C@H](c3ccoc3-c3cccc(N)c3)C[C@]21C is below 30 nM in terms of EC50.
**Result** Not fulfilled

**Query** Threshold test, EC50 < 30 nM: COC(=O)[C@@H]1C[C@H](OC(C)=O)C(=O)[C@H]2[C@@]1(C)CC[C@H]1C(=O)O[C@H](c3ccoc3-c3ccccc3N)C[C@]21C
**Result** Not fulfilled

**Query** Find out if reported EC50 for COC(=O)[C@@H]1C[C@H](OC(C)=O)C(=O)[C@H]2[C@@]1(C)CC[C@H]1C(=O)O[C@H](c3ccoc3-c3ccc(C(F)(F)F)cc3)C[C@]21C is less than 30 nM
**Result** Not fulfilled

**Query** Regarding COC(=O)[C@@H]1C[C@H](OC(C)=O)C(=O)[C@H]2[C@@]1(C)CC[C@H]1C(=O)O[C@H](c3ccoc3-c3ccoc3)C[C@]21C , kindly confirm whether its EC50 is beneath 30 nM.
**Result** Fulfilled

**Query** EC50 strictly < 30 nM for this compound? COC(=O)[C@@H]1C[C@H](OC(C)=O)C(=O)[C@H]2[C@@]1(C)CC[C@H]1C(=O)O[C@H](c3ccoc3C#Cc3ccccc3OC)C[C@]21C
**Result** Not fulfilled

**Query** Determine whether this compound shows EC50 lower than 30 nM (ties excluded): COC(=O)[C@@H]1C[C@H](OC(C)=O)C(=O)[C@H]2[C@@]1(C)CC[C@H]1C(=O)O[C@H](c3coc(C(F)(F)F)c3)C[C@]21C
**Result** Fulfilled
